Measured self-cleavage, listed per entry for reference.
B1: LINE1-full (parent)
chain: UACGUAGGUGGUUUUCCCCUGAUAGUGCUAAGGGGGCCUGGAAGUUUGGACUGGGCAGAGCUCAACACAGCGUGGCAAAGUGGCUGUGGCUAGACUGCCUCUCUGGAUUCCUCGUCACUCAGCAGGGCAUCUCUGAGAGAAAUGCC

Variants of: B1
Assay: self-cleavage, relative activity (ratio to wild type); higher = more cleavage; in vitro, sequencing; the parent is a self-cleaving ribozyme
I only need the number, thanks.

# self-cleavage (variant: U52C G144A ) is 1.73

response.value for G60A A136G (field: self-cleavage) = 0.02

The variant listed as A78G U130A has a reported self-cleavage of 1.1

For this variant ( A69C U81C ), measured self-cleavage is 0

Further cases:
Entry G114A A142U — recorded self-cleavage = 1.56

Lab note: G55C A67G gave self-cleavage of 0.05

Quick note, self-cleavage for U1A A141U landed at 1.42

The value of self-cleavage measured for the variant G34A U45C turned out to be 0.87

Consider G35A U87A . Its measured self-cleavage is 0.08

self-cleavage for A77C A124G is 0.32

Sample G35A G105A ; self-cleavage observed: 1.15

# self-cleavage (variant: C118A A129G ) is 1.1

Per the record, U91A A124U has self-cleavage of 0.48

Numbers sourced from the RNAGym collection of RNA variant scans (doi:10.7554/elife.90254).
